// provenance: paper PMC6222316

assay: Pharmacokinetic study of 14 compounds in rat plasma after oral administration of XYP (UPLC-MS/MS); type: in vivo, Sprague–Dawley rats; conditions: female, Sprague-Dawley, oral XYP 4 g/kg, mean ± SD, n = 6
parameter: half-life (h)

C[C@H]1O[C@@H](O[C@H]2CC[C@@]3(C)[C@@H](CC[C@]4(C)[C@@H]3C=C[C@]35OC[C@@]6(CCC(C)(C)C[C@H]63)[C@@H](O)C[C@]54C)[C@]2(C)CO)[C@H](O)[C@@H](O[C@@H]2O[C@H](CO)[C@@H](O)[C@H](O)[C@H]2O)[C@H]1O    6.46
O=C(/C=C/c1ccc(O)cc1)c1ccc(O)cc1O    5.82
O=C1C[C@@H](c2ccc(O)cc2)Oc2cc(O)ccc21    6.43
C[C@@H]1O[C@@H](O[C@H]2[C@H](O)[C@@H](O)[C@H](O[C@H]3CC[C@]4(C)[C@H]5C=C[C@]67OC[C@@]8(CCC(C)(C)C[C@H]86)[C@@H](O)C[C@@]7(C)[C@]5(C)CC[C@H]4C3(C)C)O[C@@H]2CO[C@@H]2O[C@H](CO)[C@@H](O)[C@H](O)[C@H]2O)[C@H](O)[C@H](O)[C@H]1O    4.23

1. C=C1CCC[C@]2(C)C[C@]3(O)OC(=O)C(C)=C3C[C@@H]12 [Atractylenolide III, atractylenolide III]
2. CCC/C=C1\OC(=O)C2=C1CC[C@H](O)[C@H]2O [Senkyunolide I, senkyunolide I]
Enquiry: Could you please tell me which of these two has the higher half-life: 1 or 2 ? Field: selected label. Fill in the label of the entry you choose.
Return: 1

* * *

Test: Pharmacokinetic study of 14 compounds in rat plasma after oral administration of XYP (UPLC-MS/MS)
Assay type: in vivo, Sprague–Dawley rats
Design: unit not given here
Details: oral XYP 4 g/kg, mean ± SD, n = 6
Method: The validated UPLC-MS/MS method was successfully applied to the pharmacokinetic study of 14 compounds in rat plasma after the oral administration of XYP at a dose of 4 g/kg (8-fold the clinical dosage). Quantitative analysis was conducted on a Waters® Micromass® Quattro Premier™ XE triple-quadrupole tandem mass spectrometer (Waters Corp., Milford, MA, USA). […]
parameter: Kel (elimination rate constant)

COc1cc(/C=C/C(=O)O)ccc1O    0.15
CC12CC(O)C3CC1(OC1OC(CO)C(O)C(O)C1O)C3(COC(=O)c1ccccc1)C(=O)O2 (stereo not drawn)    0.13
C[C@@]12C[C@@]3(O)O[C@@H](O1)[C@]1(COC(=O)c4ccccc4)[C@H]3C[C@@]12O[C@@H]1O[C@H](CO)[C@@H](O)[C@H](O)[C@H]1O    0.16

* * *

assay: Pharmacokinetic study of 14 compounds in rat plasma after oral administration of XYP (UPLC-MS/MS); type: in vivo, Sprague–Dawley rats; details: oral XYP 4 g/kg
parameter: shape of plasma concentration-time curve

Example compounds with recorded shape of plasma concentration-time curve:
C[C@H]1O[C@@H](O[C@H]2CC[C@@]3(C)[C@@H](CC[C@]4(C)[C@@H]3C=C[C@]35OC[C@@]6(CCC(C)(C)C[C@H]63)[C@@H](O)C[C@]54C)[C@]2(C)CO)[C@H](O)[C@@H](O[C@@H]2O[C@H](CO)[C@@H](O)[C@H](O)[C@H]2O)[C@H]1O [Saikosaponin a, saikosaponin a]    double peaks
O=C(/C=C/c1ccc(O)cc1)c1ccc(O)cc1O [Isoliquiritigenin, isoliquiritigenin]    double peak
CC1(C)[C@@H](O[C@H]2O[C@H](C(=O)O)[C@@H](O)[C@H](O)[C@H]2O[C@@H]2O[C@H](C(=O)O)[C@@H](O)[C@H](O)[C@H]2O)CC[C@]2(C)[C@H]3C(=O)C=C4[C@@H]5C[C@@](C)(C(=O)O)CC[C@]5(C)CC[C@@]4(C)[C@]3(C)CC[C@@H]12 [Glycyrrhizic acid, glycyrrhizic acid]    double peaks
O=C1C[C@@H](c2ccc(O)cc2)Oc2cc(O)ccc21 [Liquiritigenin, liquiritigenin]    double peak
C[C@@H]1O[C@@H](O[C@H]2[C@H](O)[C@@H](O)[C@H](O[C@H]3CC[C@]4(C)[C@H]5C=C[C@]67OC[C@@]8(CCC(C)(C)C[C@H]86)[C@@H](O)C[C@@]7(C)[C@]5(C)CC[C@H]4C3(C)C)O[C@@H]2CO[C@@H]2O[C@H](CO)[C@@H](O)[C@H](O)[C@H]2O)[C@H](O)[C@H](O)[C@H]1O [Saikosaponin c, saikosaponin c]    double peaks

Could you now look at the following compound, please?
Enquiry: Which measured shape of plasma concentration-time curve value corresponds to O=C1C[C@@H](c2ccc(O[C@@H]3O[C@H](CO)[C@@H](O)[C@H](O)[C@H]3O)cc2)Oc2cc(O)ccc21 [Liquiritin, liquiritin] ?
Return: double peak

* * *

test: Pharmacokinetic study of 14 compounds in rat plasma after oral administration of XYP (UPLC-MS/MS); assay type: in vivo, Sprague–Dawley rats; details: female, Sprague-Dawley, oral XYP 4 g/kg, mean ± SD, n = 6, read-out: MRT0–∞
parameter: MRT inf (h)

C[C@@]12C[C@@]3(O)O[C@@H](O1)[C@]1(COC(=O)c4ccccc4)[C@H]3C[C@@]12O[C@@H]1O[C@H](CO)[C@@H](O)[C@H](O)[C@H]1O    4.91

1. CC12CC(O)C3CC1(OC1OC(CO)C(O)C(O)C1O)C3(COC(=O)c1ccccc1)C(=O)O2 (stereo not shown)
2. CC1(C)[C@@H](O[C@H]2O[C@H](C(=O)O)[C@@H](O)[C@H](O)[C@H]2O[C@@H]2O[C@H](C(=O)O)[C@@H](O)[C@H](O)[C@H]2O)CC[C@]2(C)[C@H]3C(=O)C=C4[C@@H]5C[C@@](C)(C(=O)O)CC[C@]5(C)CC[C@@]4(C)[C@]3(C)CC[C@@H]12
Enquiry: Select one: 1 or 2 . Criterion: greater recorded MRT inf. Lab note: record the label of whichever item you select.
Return: 2
(2: 13.6 h, 1: 6.34 h)

* * *

Assay: Pharmacokinetic study of 14 compounds in rat plasma after oral administration of XYP (UPLC-MS/MS)
Assay type: in vivo, Sprague–Dawley rats
Conditions: female, Sprague-Dawley, oral XYP 4 g/kg, mean ± SD, n = 6
Procedure: The validated UPLC-MS/MS method was successfully applied to the pharmacokinetic study of 14 compounds in rat plasma after the oral administration of XYP at a dose of 4 g/kg (8-fold the clinical dosage). Quantitative analysis was conducted on a Waters® Micromass® Quattro Premier™ XE triple-quadrupole tandem mass spectrometer (Waters Corp., Milford, MA, USA). […]
parameter: AUC(0-t) (ng·h/mL)

Known results for molecules:
CCC/C=C1\OC(=O)C2=C1CCC=C2 [Ligustilide, ligustilide]    194
CC12CC(O)C3CC1(OC1OC(CO)C(O)C(O)C1O)C3(COC(=O)c1ccccc1)C(=O)O2 (stereo not drawn)    128
O=C1C[C@@H](c2ccc(O[C@@H]3O[C@H](CO)[C@@H](O)[C@H](O)[C@H]3O)cc2)Oc2cc(O)ccc21    163
C[C@@]12C[C@@]3(O)O[C@@H](O1)[C@]1(COC(=O)c4ccccc4)[C@H]3C[C@@]12O[C@@H]1O[C@H](CO)[C@@H](O)[C@H](O)[C@H]1O    697
C=C1CCC[C@]2(C)C[C@@H]3OC(=O)C(C)=C3C[C@@H]12 [Atractylenolide II, atractylenolide II]    69.5

A. CCC/C=C1\OC(=O)C2=C1CC[C@H](O)[C@H]2O [Senkyunolide I, senkyunolide I]
B. O=C(/C=C/c1ccc(O)cc1)c1ccc(O)cc1O
C. O=C1C[C@@H](c2ccc(O)cc2)Oc2cc(O)ccc21
D. C=C1CCC[C@]2(C)C[C@]3(O)OC(=O)C(C)=C3C[C@@H]12 [Atractylenolide III, atractylenolide III]
Enquiry: Sort ascending by AUC(0-t). Give me the labels in the order the question wants.
Return: B, C, D, A
(B: 157 ng·h/mL, C: 286 ng·h/mL, D: 1040 ng·h/mL, A: 1580 ng·h/mL)

* * *

assay: Pharmacokinetic study of 14 compounds in rat plasma after oral administration of XYP (UPLC-MS/MS); assay type: in vivo, Sprague–Dawley rats; details: female, Sprague-Dawley, oral XYP 4 g/kg, mean ± SD, n = 6
parameter: Cmax (ng/mL)

CCC/C=C1\OC(=O)C2=C1CC[C@H](O)[C@H]2O [Senkyunolide I, senkyunolide I]    403
O=C(/C=C/c1ccc(O)cc1)c1ccc(O)cc1O [Isoliquiritigenin, isoliquiritigenin]    33.6
CCC/C=C1\OC(=O)C2=C1CCC=C2 [Ligustilide, ligustilide]    65
C[C@H]1O[C@@H](O[C@H]2CC[C@@]3(C)[C@@H](CC[C@]4(C)[C@@H]3C=C[C@]35OC[C@@]6(CCC(C)(C)C[C@H]63)[C@@H](O)C[C@]54C)[C@]2(C)CO)[C@H](O)[C@@H](O[C@@H]2O[C@H](CO)[C@@H](O)[C@H](O)[C@H]2O)[C@H]1O [Saikosaponin a, saikosaponin a]    6.05
CC1(C)[C@@H](O[C@H]2O[C@H](C(=O)O)[C@@H](O)[C@H](O)[C@H]2O[C@@H]2O[C@H](C(=O)O)[C@@H](O)[C@H](O)[C@H]2O)CC[C@]2(C)[C@H]3C(=O)C=C4[C@@H]5C[C@@](C)(C(=O)O)CC[C@]5(C)CC[C@@]4(C)[C@]3(C)CC[C@@H]12 [Glycyrrhizic acid, glycyrrhizic acid]    18.6

P. C[C@@]12C[C@@]3(O)O[C@@H](O1)[C@]1(COC(=O)c4ccccc4)[C@H]3C[C@@]12O[C@@H]1O[C@H](CO)[C@@H](O)[C@H](O)[C@H]1O [Paeoniflorin, paeoniflorin]
Q. O=C1C[C@@H](c2ccc(O)cc2)Oc2cc(O)ccc21 [Liquiritigenin, liquiritigenin]
Enquiry: Parameter check: reported Cmax is higher for which label, P or Q ? I would appreciate it if you answered with the label of your choice.
Return: P
